From: ChEMBL document CHEMBL1201862

tested on: SW-620; assay: NCI tumour cell line growth inhibition, 48 h
Counter-ions that a name gives are not always drawn. Activity calls are given as the source filed them. No stated cut-off is given here; in the data, active = GI50 up to about 1.1 µM and inactive = higher.
Property: GI50

[[record]]
compound = "CC1(C)S[C@@H]2[C@H](NC(=O)CCC[C@@H](N)C(=O)O)C(=O)N2[C@H]1C(=O)O"
measurement_target = "SW-620"
experimental_result = "> 31.6 µM (inactive)"

[[record]]
compound = "Cc1ccc2c(=O)c(C(=O)NNC(=S)NC3CCCCC3)c[nH]c2n1"
measurement_target = "SW-620"
experimental_result = "40.6 µM (inactive)"

[[record]]
compound = "CCN1C/C(=C\\c2ccc(Cl)cc2)c2[nH]c(=O)c(C#N)c(-c3ccc(Cl)cc3)c2C1"
measurement_target = "SW-620"
experimental_result = "> 100 µM (inactive)"

[[record]]
compound = "COc1ccc(C(=O)C(C(=O)C(=O)NCCCNC(=O)C(=O)C(C(=O)c2ccc(OC)cc2)c2ccc(OC)cc2)c2ccc(OC)cc2)cc1 (centres undefined)"
measurement_target = "SW-620"
experimental_result = "> 100 µM (inactive)"

[[record]]
compound = "CC(=O)Oc1cc(Cl)c(C)c2c1[C@H]1CC[C@]3(C)[C@@H](OC(C)=O)CC[C@H]3[C@@H]1CC2"
measurement_target = "SW-620"
experimental_result = "> 100 µM (inactive)"

[[record]]
compound = "C=CCOc1ccc(C2c3c(n[nH]c3O)CC(O)(OCC)C2C(=O)OCC)cc1OC (centres undefined)"
measurement_target = "SW-620"
experimental_result = "> 100 µM (inactive)"

[[record]]
compound = "CCNCCCNc1c2ccccc2nc2ccccc12"
measurement_target = "SW-620"
experimental_result = "0.278 µM (active)"

[[record]]
compound = "O=C1c2c(O)cccc2-c2nn(CCNCCO)c3ccc(NCCNCCO)c1c23 [LOSOXANTRONE HYDROCHLORIDE]"
measurement_target = "SW-620"
experimental_result = "0.116 µM (active)"

[[record]]
compound = "O=C(Nc1ccccc1C(=O)NCc1ccccc1)/C(=C/c1ccccc1)NC(=O)c1ccccc1"
measurement_target = "SW-620"
experimental_result = "> 100 µM (inactive)"

